Source of measurements: the supplement of paper PMC10126150

Test system: ATP;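 further: ATP exposure 15 min at 22 °C before imaging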
Assay: switch fluorescence ratio, 500 uM ATP over buffer (Cy3 cluster intensity, sum of 5 cycles each) (fold (ratio)); higher = stronger signal-on switching upon ATP binding; sequences stand for … in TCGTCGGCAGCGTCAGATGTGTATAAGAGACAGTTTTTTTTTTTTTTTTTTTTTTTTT…TC
Details: aptamer strand: ATP DNA aptamer (quencher-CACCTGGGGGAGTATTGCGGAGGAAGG + anchor), 100 nM annealed; ATP concentration: 500 uM
Collected switch fluorescence ratio values appear next to each entry.
test.readout: switch fluorescence ratio

| primary.sequence | assay.system | measured.value |
| --- | --- | --- |
| TTCAAACATC | ATP | 1 |
| CAATGGATGA | ATP | 1 |
| AGTGGGTTTC | ATP | 0.97 |
| GATTTGGAAG | ATP | 1.01 |
| ATGGCCGGGT | ATP | 1.01 |
| AGAGTGGTGG | ATP | 0.977 |
| TCGGCGAAGG | ATP | 1.01 |
| AATGGCATTT | ATP | 0.989 |
| AGGCTGAGCT | ATP | 0.979 |
| GTTTGCTCCC | ATP | 1.15 |
| TTTTCTTGGG | ATP | 1.03 |
| AAAAATTTAG | ATP | 0.994 |
| GGGGAGAAGG | ATP | 0.981 |
